src = patent US20090081197A1

target.under.test: MC4-R (Homo sapiens)
Sequence (P32245 whole entry): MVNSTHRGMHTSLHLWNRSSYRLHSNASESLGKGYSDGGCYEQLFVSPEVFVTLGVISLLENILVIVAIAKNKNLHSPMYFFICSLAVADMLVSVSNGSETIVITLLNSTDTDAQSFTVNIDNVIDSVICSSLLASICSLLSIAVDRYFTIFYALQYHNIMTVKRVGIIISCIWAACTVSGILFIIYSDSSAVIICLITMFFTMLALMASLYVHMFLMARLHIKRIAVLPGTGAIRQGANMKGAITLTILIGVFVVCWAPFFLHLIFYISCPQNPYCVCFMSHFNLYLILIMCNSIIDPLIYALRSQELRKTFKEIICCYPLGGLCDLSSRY
experimental.protocol: Competitive inhibition assay using [I^125]-NDP-α-MSH, hMC4-R membranes
Format: binding
Parameters: host or cells: TREx-293 (HEK-293 stably expressing Tet repressor)
conditions: 1 μM test compound; read-out: Inhibition at 1 μM (NDP-α-MSH) In Normal System, MC4-R
Positions of bridges follow the written chain, without caps; N, C: chain ends. Non-standard residues stand in square brackets, D forms with d. Residues, ends and D or L forms follow the SMILES beside them. *: point of attachment. dPhe(4-Cl) = N[C@H](Cc1ccc(Cl)cc1)C(=O)O; 1Nal = N[C@@H](Cc1cccc2ccccc12)C(=O)O; 2Nal = N[C@@H](Cc1ccc2ccccc2c1)C(=O)O; d2Nal = N[C@H](Cc1ccc2ccccc2c1)C(=O)O; Nle = CCCC[C@H](N)C(=O)O; Ahp = NCCCCCCC(=O)O; Bn = c1ccc(C*)cc1
endpoint: inhibition at 1 µM (%)

>>> readout_value("CCCC[C@H](NC(C)=O)C(=O)N[C@H]1CC(=O)NCCCC[C@@H](C(=O)NCC)NC(=O)[C@H](Cc2cccc3ccccc23)NC(=O)[C@H](CCCNC(=N)N)NC(=O)[C@@H](Cc2ccccc2)NC(=O)[C@H](Cc2c[nH]cn2)NC1=O")
98
>>> readout_value("N=C(N)NCCC[C@H]1CN(CCc2ccc3ccccc3c2)CCN1C(=O)[C@H](N)Cc1ccc(Cl)cc1Cl")
99
>>> readout_value("CCCC[C@H](NC(C)=O)C(=O)N[C@H]1CC(=O)NCCCC[C@@H](C(=O)O)NC(=O)[C@H](Cc2ccc3ccccc3c2)NC(=O)[C@H](CCCNC(=N)N)NC(=O)[C@@H](Cc2ccc3ccccc3c2)NC(=O)[C@H](Cc2c[nH]cn2)NC1=O [Example 34] (Ac-[Nle]DH[d2Nal]R[2Nal]K-OH; lactam 2-7)")
100
>>> readout_value("N=C(N)NCCC[C@H]1C(=O)N(CCc2c[nH]c3ccccc23)CCN1C(=O)[C@H](N)Cc1ccc(Cl)cc1Cl")
96
>>> readout_value("CCCC[C@H](NC(C)=O)C(=O)N[C@H]1CC(=O)NCCCC[C@@H](C(=O)N(C)C)NC(=O)[C@H](Cc2cccc3ccccc23)NC(=O)[C@H](CCCNC(=N)N)NC(=O)[C@@H](Cc2ccccc2)NC(=O)[C@H](Cc2c[nH]cn2)NC1=O")
100
>>> readout_value("CCNC(=O)[C@@H]1CCCCNC(=O)C[C@H](NC(C)=O)C(=O)N[C@@H](Cc2c[nH]cn2)C(=O)N[C@H](Cc2ccccc2)C(=O)N[C@@H](CCCNC(=N)N)C(=O)N[C@@H](Cc2c[nH]c3ccccc23)C(=O)N1")
96
>>> readout_value("NCCCC[C@H]1C(=O)N(CCc2ccc3ccccc3c2)CCN1C(=O)[C@@H](Cc1ccc(Cl)cc1Cl)NC(=O)c1ccc(Oc2ccccc2)cc1")
99
>>> readout_value("C[C@@H]1CN(C(=O)[C@H](N)Cc2ccc3ccccc3c2)[C@@H](CCCNC(=N)N)CN1C(=O)Cc1ccc2ccccc2c1")
89
>>> readout_value("NCCCC[C@H]1C(=O)N(CCc2ccc3ccccc3c2)CCN1C(=O)[C@@H](Cc1ccc(Cl)cc1Cl)NC(=O)[C@@H]1CC[C@H](c2ccccc2)N1")
92
>>> readout_value("N=C(N)NCCC[C@H](NC(=O)[C@@H](Cc1ccc(Cl)cc1)NC(=O)[C@H](COCc1ccccc1)NC(=O)CCCCCCN)C(=O)N[C@@H](Cc1c[nH]c2ccccc12)C(N)=O [Example 1] (H-[Ahp]S(Bn)[dPhe(4-Cl)]RW-NH2)")
99
>>> readout_value("Cc1cc(Cl)ccc1C[C@@H](N)C(=O)N1C[C@@H](C)N(C(=O)Cc2ccc3ccccc3c2)C[C@@H]1CCCNC(=N)N")
96
>>> readout_value("N=C(N)NCCC[C@H]1C(=O)N2C(CC[C@@H]2COc2ccc3ccccc3c2)N1C(=O)[C@@H](Cc1ccc(Cl)cc1Cl)NC(=O)[C@@H]1CC[C@H](c2ccccc2)N1 (stereo partly drawn)")
97
>>> readout_value("Cc1ccc(CCN2C[C@H](CCCNC(=N)N)N(C(=O)[C@H](N)Cc3ccc4ccccc4c3)C[C@H]2C)cc1")
95
>>> readout_value("CC(C)C[C@@H]1CN(C(=O)[C@H](N)Cc2ccc(Cl)cc2Cl)[C@@H](CCCNC(=N)N)CN1CCc1ccc2ccccc2c1")
99
>>> readout_value("N=C(N)NCCC[C@H](NC(=O)[C@@H](Cc1ccc(Cl)cc1)NC(=O)[C@H](COCc1ccccc1)NC(=O)CCCCCCN)C(=O)N[C@@H](Cc1c[nH]c2ccccc12)C(=O)N[C@@H](CC(=O)O)C(N)=O [Example 13] (H-[Ahp]S(Bn)[dPhe(4-Cl)]RWD-NH2)")
98
>>> readout_value("Cc1cc(Cl)ccc1C[C@@H](N)C(=O)N1C[C@@H](C)N(CCc2c[nH]c3ccccc23)C[C@@H]1CCCNC(=N)N")
98
>>> readout_value("CCCC[C@H](NC(C)=O)C(=O)N[C@H]1CC(=O)NCCCC[C@@H](C(=O)N(C)C)NC(=O)[C@H](Cc2cccc3ccccc23)NC(=O)[C@H](CCCNC(=N)N)NC(=O)[C@@H](Cc2ccccc2)NC(=O)[C@H](Cc2c[nH]c3ccccc23)NC1=O [Example 36] (Ac-[Nle]DW[dF]R[1Nal]K-NMe2; lactam 2-7)")
99
>>> readout_value("CC(=O)N[C@H](Cc1ccc2ccccc2c1)C(=O)N1C[C@@H](C)N(C(=O)Cc2ccc3ccccc3c2)C[C@@H]1CCCNC(=N)N")
97
>>> readout_value("CC(=O)N[C@H](Cc1ccc(C)cc1C)C(=O)N1C[C@@H](C)N(CCc2ccc3ccccc3c2)C[C@@H]1CCCNC(=N)N")
100
>>> readout_value("C[C@@H]1CN(C(=O)[C@H](N)Cc2ccc3ccccc3c2)[C@@H](CCCNC(=N)N)CN1C(=O)Cc1c[nH]c2ccccc12")
90
>>> readout_value("C[C@@H]1CN(C(=O)[C@H](N)Cc2ccc3ccccc3c2)[C@@H](CCCNC(=N)N)CN1C(=O)CCCc1c[nH]c2ccccc12")
88
